These entries and their values trace back to patent US12624018B1.

# System Name: RIPK2 and XIAP protein-protein interaction (Homo sapiens, UniProt O43353)
# Construct: the N-terminus of full-length RIPK2 was appended with the HaloTag fusion protein
# Sequence (O43353 whole entry, the tested form may be a part): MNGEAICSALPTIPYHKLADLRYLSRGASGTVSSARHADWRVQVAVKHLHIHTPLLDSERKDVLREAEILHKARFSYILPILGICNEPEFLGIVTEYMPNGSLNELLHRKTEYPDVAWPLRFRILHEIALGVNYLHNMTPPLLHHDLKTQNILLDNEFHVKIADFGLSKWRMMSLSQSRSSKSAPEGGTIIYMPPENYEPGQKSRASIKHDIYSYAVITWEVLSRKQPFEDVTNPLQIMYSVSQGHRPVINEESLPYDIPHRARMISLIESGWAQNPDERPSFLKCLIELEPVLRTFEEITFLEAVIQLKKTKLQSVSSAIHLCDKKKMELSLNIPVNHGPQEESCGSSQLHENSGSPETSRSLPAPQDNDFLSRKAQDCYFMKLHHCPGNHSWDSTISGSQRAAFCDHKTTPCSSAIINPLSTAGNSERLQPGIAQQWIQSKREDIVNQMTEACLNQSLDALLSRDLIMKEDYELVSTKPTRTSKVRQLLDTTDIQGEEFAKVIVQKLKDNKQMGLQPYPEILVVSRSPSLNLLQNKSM
# Method Description: Inhibition of the interaction of RIPK2 with XIAP (NanoBRET in HEK293T cells)
# Details: RIPK2 HaloTag / XIAP NanoLuc, read-out: NanoBRET Scaffolding IC50
Assay Readout: IC50 (nM)

# Compound, System Name, Reading
records = [
    ("Cc1cc(CC(=O)Nc2cnn(C34CC(C3)C4)c2)ccc1Oc1ccnc2ccc(S(=N)(=O)C3CC3)cc12 (single isomer, unassigned) [Compound 530]", "RIPK2 and XIAP protein-protein interaction (Homo sapiens, UniProt O43353)", 94.3),
    ("CNC(=O)c1cc2c(Oc3ccc(CC(=O)Nc4cnn(C(C)(C)C)c4)cc3C)ccnc2cc1F", "RIPK2 and XIAP protein-protein interaction (Homo sapiens, UniProt O43353)", 24.2),
    ("Cc1cc(CC(=O)Nc2cnn(C(C)(C)C)c2)ccc1Oc1ccnc2ccc(S(=N)(=O)C3CC3)cc12 (single isomer, unassigned) [Compound 543]", "RIPK2 and XIAP protein-protein interaction (Homo sapiens, UniProt O43353)", 77.5),
    ("Cc1c(Oc2ccnc3ccc(C(N)=O)cc23)cc(F)c(CC(=O)Nc2cnn(C(C)(C)C)c2)c1F", "RIPK2 and XIAP protein-protein interaction (Homo sapiens, UniProt O43353)", 63.1),
]

[1] Cc1cc(CC(=O)Nc2cnn(C(C)(C)C)c2)c(F)cc1Oc1ccnc2ccc(S(=N)(=O)C3CC3)cc12 (single isomer, unassigned) [Compound 466]
[2] NC(=O)c1ccc2nccc(Oc3cc(F)c(CC(=O)Nc4cnn(C56CC(C5)C6)c4)cc3Cl)c2c1
[3] Cc1nnc(-c2ccc3nccc(Oc4cc(F)c(CC(=O)Nc5cnn(C(C)(C)C)c5)cc4C)c3c2)o1
[4] Cc1cc(CC(=O)Nc2cnn(C(C)(C)C)c2)c(F)cc1Oc1ccnc2ccc(C(=O)N3[C@H](C)CNC[C@@H]3C)cc12
Incoming: hey, can you rank those compounds up there by IC50? biggest number first please Provide the ranking by listing each label in its place in the requested order.
Outgoing: 2, 1, 4, 3
(2: 189 nM, 1: 48 nM, 4: 13.1 nM, 3: 4.6 nM)

----------
# System Name: RIPK2 and XIAP protein-protein interaction (Homo sapiens)
# Construct: the N-terminus of full-length RIPK2 was appended with the HaloTag fusion protein
# Method Description: Inhibition of the interaction of RIPK2 with XIAP (NanoBRET in HEK293T cells)
# Details: RIPK2 HaloTag / XIAP NanoLuc, read-out: NanoBRET Scaffolding IC50
# Source text: An assay measuring the RIPK2 and XIAP protein-protein interaction was generated using the NanoBRET protein:protein interaction system (Promega) which measures the energy transfer from a bioluminescent protein donor (NanoLuc fusion protein) to a fluorescent protein acceptor (Halotag fusion protein). In this assay, the C-terminus of full-length XIAP was appended with the NanoLuc fusion protein and the N-terminus of full-length RIPK2 was appended with the HaloTag fusion protein. […]
Assay Readout: IC50 (nM)

Below, each entry is followed by its recorded IC50 result.
# Molecule, Assay Readout, Reading
records = [
    ("[2H]C([2H])([2H])NC(=O)c1ccc2nccc(Oc3cc(F)c(CC(=O)Nc4cnn(C56CC(C5)C6)c4)cc3C([2H])([2H])[2H])c2c1 (single isomer, unassigned) [Compound 512]", "IC50", 57.6),
    ("COc1cc2nccc(Oc3ccc(CC(=O)Nc4cnn(C(C)(C)C)c4)cc3C(F)F)c2cc1S(C)(=O)=O [Compound 413]", "IC50", 27),
    ("[2H]C([2H])([2H])NC(=O)c1ccc2nccc(Oc3cc(F)c(CC(=O)Nc4cnn(C(C)(C)C)c4)cc3C)c2c1 [Compound 492]", "IC50", 22),
    ("Cc1cc(CC(=O)Nc2cnn(C(C)(C)C)c2)cc(Cl)c1Oc1ccnc2cc(F)c(C(N)=O)cc12 [Compound 584]", "IC50", 44.6),
    ("[2H]C([2H])([2H])NC(=O)c1ccc2nccc(Oc3cc(F)c(CC(=O)Nc4cnn(C(C)(C)C)c4)c(F)c3C)c2c1 (single isomer, unassigned) [Compound 555]", "IC50", 7.3),
]

[1] CNC(=O)c1ccc2nccc(Oc3cc(F)c(CC(=O)Nc4cnn(C56CC(C5)C6)c4)c(F)c3C)c2c1 [Compound 557]
[2] Cc1cc(CC(=O)Nc2cnn(C(C)(C)C)c2)ccc1Oc1ccnc2ccc(S(=N)(=O)C3CC3)cc12 (single isomer, unassigned) [Compound 544]
[3] CNCc1nnc(-c2ccc3nccc(Oc4cc(F)c(CC(=O)Nc5cnn(C(C)(C)C)c5)cc4C)c3c2)o1 [Compound 481]
Incoming: List by increasing IC50. Provide the ranking by listing each label in its place in the requested order.
Outgoing: 3, 1, 2
